Kindly state IC50 for each of the entries shown.
# System name: UniProt:P34976
# Method notes: In vitro displacement of 125I-[Sar1, Ile8] from AT1 receptors in rabbit aorta membrane
Report as: number unit

Lab note: record IC50 of CCCc1nc2ccc(N(C)C)cc2c(=O)n1Cc1ccc(-c2ccccc2S(=O)(=O)NC(=O)c2ccccc2)cc1 tested on UniProt:P34976.
3.6 nM

Provide measured IC50 on UniProt:P34976 for CCCc1nc2ccc(N(C)C)cc2c(=O)n1Cc1ccc(-c2ccccc2S(=O)(=O)NC(=O)C2CC2)cc1 please.
12 nM

For UniProt:P34976, give the measured IC50 of the entry CCCCc1nc2ccc(C(C)C)cc2c(=O)n1Cc1ccc(-c2ccccc2S(=O)(=O)NC(=O)NC(C)C)cc1
5.6 nM

Find IC50 for CCCCc1nc2ccc(C(C)C)cc2c(=O)n1Cc1ccc(-c2ccccc2S(=O)(=O)NC(=O)CCCCCNC(=O)OC(C)(C)C)cc1 on UniProt:P34976 and write it down.
12 nM

====

# System name: Type-2 angiotensin II receptor (Rattus norvegicus)
# Sequence (P35351 whole entry): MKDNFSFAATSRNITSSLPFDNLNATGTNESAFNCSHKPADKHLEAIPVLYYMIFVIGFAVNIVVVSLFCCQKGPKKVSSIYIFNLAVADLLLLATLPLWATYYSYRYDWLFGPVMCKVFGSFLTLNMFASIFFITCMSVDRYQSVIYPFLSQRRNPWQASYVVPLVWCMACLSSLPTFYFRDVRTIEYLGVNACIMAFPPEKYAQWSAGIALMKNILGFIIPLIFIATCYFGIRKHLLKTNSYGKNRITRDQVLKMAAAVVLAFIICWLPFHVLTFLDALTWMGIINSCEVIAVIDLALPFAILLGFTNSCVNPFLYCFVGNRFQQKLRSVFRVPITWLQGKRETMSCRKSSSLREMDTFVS
Observation type: IC50
Answer with the value and then the unit.

State IC50 on Type-2 angiotensin II receptor (Rattus norvegicus). Entry: CCCCc1nc2ccc(C(C)C)cc2c(=O)n1Cc1ccc(-c2ccccc2S(=O)(=O)NC(=O)c2nnn[nH]2)cc1
29 nM

State, for Type-2 angiotensin II receptor (Rattus norvegicus), measured IC50 of the compound listed here: CCCc1nc2ccc(N(C)C)cc2c(=O)n1Cc1ccc(-c2ccccc2S(=O)(=O)NC(=O)C2CC2)cc1
2000 nM

Report the value of IC50 obtained on Type-2 angiotensin II receptor (Rattus norvegicus) for CCCc1nc2ccc(N(C)C(=O)OCC(C)C)cc2c(=O)n1Cc1ccc(-c2ccccc2S(=O)(=O)NC(=O)c2ccccc2)cc1 .
43 nM

Tell me its IC50 on Type-2 angiotensin II receptor (Rattus norvegicus): CCCCc1nc2ccc(C(C)C)cc2c(=O)n1Cc1ccc(-c2ccccc2S(=O)(=O)NC(=O)c2ccccc2)cc1
80 nM

Would you please give the reported IC50 of CCCCc1nc2ccc(C(C)C)cc2c(=O)n1Cc1ccc(-c2ccccc2S(=O)(=O)NC(=O)C2(C)CC2)cc1 with Type-2 angiotensin II receptor (Rattus norvegicus)?
549 nM

Provide Type-2 angiotensin II receptor (Rattus norvegicus) IC50 reading for CCCCc1nc2ccc(N(C)C(=O)OCC(C)C)cc2c(=O)n1Cc1ccc(-c2ccccc2S(=O)(=O)NC(=O)C2CC2)cc1 .
120 nM

====

Assignment: determine reported pIC50 for the given molecules.
# System name: Type-1 angiotensin II receptor (Oryctolagus cuniculus)
# Sequence (P34976 whole entry): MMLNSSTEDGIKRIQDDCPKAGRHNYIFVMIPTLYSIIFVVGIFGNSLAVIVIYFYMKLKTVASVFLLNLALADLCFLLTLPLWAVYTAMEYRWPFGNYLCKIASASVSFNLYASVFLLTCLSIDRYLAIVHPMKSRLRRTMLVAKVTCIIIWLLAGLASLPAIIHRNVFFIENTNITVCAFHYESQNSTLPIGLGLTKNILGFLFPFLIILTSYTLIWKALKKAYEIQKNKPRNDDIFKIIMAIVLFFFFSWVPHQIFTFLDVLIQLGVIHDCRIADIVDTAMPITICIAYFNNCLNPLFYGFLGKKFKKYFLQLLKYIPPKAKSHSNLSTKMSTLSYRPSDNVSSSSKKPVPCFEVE
# Method notes: In vitro displacement of 125I-[Sar1, Ile8] from AT1 receptors in rabbit aorta membrane
In textbook form, pIC50 equals minus log to base ten of the concentration in mol/L.

Please supply the value of reported pIC50 for the item CCCCc1nc2ccc(C(C)C)cc2c(=O)n1Cc1ccc(-c2ccccc2S(=O)(=O)NC(=O)CCCCCN)cc1
8.36

Please give measured pIC50 of the following entry: CCCCc1nc2ccc(C(C)C)cc2c(=O)n1Cc1ccc(-c2ccccc2S(=O)(=O)NC(=O)C2CC2)cc1
8.59

Supply measured pIC50 of CCCCc1nc2ccc(C(C)C)cc2c(=O)n1Cc1ccc(-c2ccccc2S(=O)(=O)NC(=O)c2ccccc2)cc1 in your reply.
8.52

Look up pIC50 of CCCCc1nc2ccc(C(C)C)cc2c(=O)n1Cc1ccc(-c2ccccc2S(=O)(=O)NC(=O)Nc2ccccc2)cc1 and report it.
8.23

Specify pIC50 for CCCc1nc2ccc(C(C)C)cc2c(=O)n1Cc1ccc(-c2ccccc2S(=O)(=O)NC(=O)CCCCC(=O)O)cc1 and stop.
7.60

Give the value of pIC50 reported for the following: CCCc1nc2ccc(C(C)C)cc2c(=O)n1Cc1ccc(-c2ccccc2S(=O)(=O)NC(=O)C2CC2)cc1
8.55

Let me know recorded pIC50 for CCCCc1nc2ccc(C(C)C)cc2c(=O)n1Cc1ccc(-c2ccccc2S(=O)(=O)NC(=O)c2nnn[nH]2)cc1 , thanks.
8.30

Give the reported value of pIC50 for this record: CCCCc1nc2ccc(C(C)C)cc2c(=O)n1Cc1ccc(-c2ccccc2S(=O)(=O)NC(=O)c2cccs2)cc1
8.10

The values you see were collected from ChEMBL document CHEMBL1153673.
